measurementNotes: Serum binding
Assay type: in vitro ADME
setupConditions: as previously described (refs 27, 31, 36)
Procedure: Determination of the chemical and photophysical properties (LogP, solubility, serum binding, net charge, and brightness) was performed as previously described.
Where a SMILES comes first, the peptide text is derived from it. The star is where a group is joined. X1 = CC1(C)C(/C=C/C=C/C=C2/N(CCCCS(=O)(=O)O)c3ccc(S(=O)(=O)O)cc3C2(C)C)=[N+](CCCCCC(=O)NCCN2C(=O)CC(*)C2=O)c2ccc(S(=O)(=O)[O-])cc21
reportedEndpoint: fraction unbound

Check out these entries, answers already filled in.
INSERT INTO assay_data (molecule, reportedendpoint, endpointvalue) VALUES
  ('CC(=O)N[C@@H](CCCCN)C(=O)N[C@H](C(=O)N1CCC[C@H]1C(=O)N[C@H](C(=O)N[C@@H](CCCNC(=N)N)C(=O)N[C@@H](Cc1ccc(O)cc1)C(=O)N[C@@H](CSC1CC(=O)N(CCNC(=O)CCCCC[N+]2=C(/C=C/C=C/C=C3/N(CCCCS(=O)(=O)O)c4ccc(S(=O)(=O)O)cc4C3(C)C)C(C)(C)c3cc(S(=O)(=O)[O-])ccc32)C1=O)C(N)=O)[C@@H](C)O)C(C)C (stereo partly drawn) [Cy5-P0_120–125] (Ac-KVPTRYC(X1)-NH2)', 'fraction unbound', 0.29),
  ('CC[C@H](C)[C@H](NC(=O)[C@H](CC(=O)O)NC(=O)[C@@H]1CCCN1C(=O)[C@@H]1CCCN1C(=O)[C@H](CC(N)=O)NC(=O)[C@H](CCCCN)NC(C)=O)C(=O)N[C@@H](CSC1CC(=O)N(CCNC(=O)CCCCC[N+]2=C(/C=C/C=C/C=C3/N(CCCCS(=O)(=O)O)c4ccc(S(=O)(=O)O)cc4C3(C)C)C(C)(C)c3cc(S(=O)(=O)[O-])ccc32)C1=O)C(N)=O (stereo partly drawn) [Cy5-P0_101–106] (Ac-KNPPDIC(X1)-NH2)', 'fraction unbound', 0.53);

Ask: Value lookup for fraction unbound; key = CC[C@H](C)[C@H](NC(=O)[C@H](CC(=O)O)NC(=O)[C@@H]1CCCN1C(=O)[C@@H]1CCCN1C(=O)[C@H](CC(N)=O)NC(=O)[C@H](CCCCN)NC(C)=O)C(=O)N[C@H](C(=O)NCC(=O)N[C@@H](CCCCN)C(=O)N[C@H](C(=O)N[C@@H](CSC1CC(=O)N(CCNC(=O)CCCCC[N+]2=C(/C=C/C=C/C=C3/N(CCCCS(=O)(=O)O)c4ccc(S(=O)(=O)O)cc4C3(C)C)C(C)(C)c3cc(S(=O)(=O)[O-])ccc32)C1=O)C(N)=O)[C@@H](C)O)C(C)C (stereo partly drawn) [Cy5-P0_101–110] (Ac-KNPPDIVGKTC(X1)-NH2)
Result: 0.45
